The measured values listed here are drawn from patent US20190175688A1.

Overview of recorded pIC50 for various binders
TARGET_OF_ASSAY: T1, HIV-1 YU-2 gp120 (wild-type gp120YU-2, monomeric) (HIV-1 (YU-2), UniProt P35961 32-498)
T1 construct: domain: gp120; only gp120 stood in the assay
EXPERIMENTAL_PROTOCOL: SPR competition, sCD4 inhibition: inhibition of gp120 binding to immobilized sCD4
Positions of bridges follow the written chain, without caps; N, C: chain ends. Non-standard residues stand in square brackets, D forms with d. No end group written: not given here. Pro(cis-4-Trz(4-CH2CH2Ph)) = O=C(O)[C@@H]1C[C@H](n2cc(CCc3ccccc3)nn2)CN1
Please keep in mind that pIC50 is minus log10 of the molar concentration; only the number is needed.

BINDER: IENI[Pro(cis-4-Trz(4-CH2CH2Ph))]WK-NH2 (N-terminus assumed; SMILES CC[C@H](C)[C@H](N)C(=O)N[C@@H](CCC(=O)O)C(=O)N[C@@H](CC(N)=O)C(=O)N[C@H](C(=O)N1C[C@@H](n2cc(CCc3ccccc3)nn2)C[C@H]1C(=O)N[C@@H](Cc1c[nH]c2ccccc12)C(=O)N[C@@H](CCCCN)C(N)=O)[C@@H](C)CC, Acyclic (linear) counterpart of AAR024; also called acyclic analogue of AAR024; linear AAR024A) [AAR024A]
pIC50: 5.10

Proceeding to the next binder to report its pIC50.
Retrieve pIC50 measured for ENNI[Pro(cis-4-Trz(4-CH2CH2Ph))]WK-NH2 (lactam 1-7; N-terminus assumed; SMILES CC[C@H](C)[C@@H]1NC(=O)[C@H](CC(N)=O)NC(=O)[C@H](CC(N)=O)NC(=O)[C@@H](N)CCC(=O)NCCCC[C@@H](C(N)=O)NC(=O)[C@H](Cc2c[nH]c3ccccc23)NC(=O)[C@@H]2C[C@H](n3cc(CCc4ccccc4)nn3)CN2C1=O, Cyclic peptide triazole) [AAR026] and print it.
6.27
